The measurements presented in this section are drawn from PubChem BioAssay.

Test system: Fibrinogen (Alexa647-labelled)
Test: fibrinogen binders on compound microarrays, profiling panel, artefact control for SMM control-protein annotation, biochemical, small-molecule microarray, 635/667 nm fluorescence (AID 1131);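 further: z-score merges 667 nm fluorescence with per-spot signal-to-noise over triplicate slides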
Conditions: fibrinogen-A647 binding fluorescence, higher = more signal
Quick reference: composite z-score of the listed items.
Keep the answer to the number alone.

MOLECULE	composite z-score
CC(CO)N1C(=O)[C@@H]2C3C(=O)OCCC/C=C\[C@H]3OC23C=CCN(Cn2nnc4ccccc42)C(=O)[C@@H]13 (stereo partly drawn)	-0.326
C=C(CCCC)/C(=C/C[C@@H](OC(=O)c1ccncc1)c1cccc(OCCO)c1)c1cnc2ccccc2c1	0.832
O=C1NCC(=O)N2[C@@H]1C[C@@H](C(=O)O)[C@H]2c1ccc(O)cc1	0.8
O=C(CCCCCCC(=O)Nc1ccccc1)N/N=C/c1ccccc1	-0.876
C[C@H]1C2=C3C(CC[C@H]4C(OCc5ccc(F)cc5C(F)(F)F)OC[C@](C)([C@@H]34)N(C(=O)OC(C)(C)C)C2)C(CO)C1CO (stereo partly drawn)	0.944
C=C(C(=O)CC[C@H](OC(=O)c1cccnc1)c1ccc(CO)o1)C(C)C	0.88

*Q* I am curious: what composite z-score value has been reported for `COC(=O)[C@@]1(Cc2ccc(OC)cc2)[C@H]2c3cc(C(=O)N(C)C)n(Cc4ccccc4)c3C[C@H]2CN1C(=O)c1ccccc1` ?
*A* -0.228

*Q* Query (molecule): COc1ccc(C(O)C2C=CC3C(=O)N(C)C(=O)C3N2N2CCCCC2)cc1 (stereo not drawn) ; field requested: composite z-score
*A* 0.96

###

Assay: osmotic lysis modulators in infected erythrocytes, primary screen, PSAC antagonist project, cell-based, P. falciparum Indochina, OD700, 3 h (AID 1156)
Conditions: higher = more signal, called active from +8 up or from −8 down
# binning rule on z-score: A (below -0.1), B (-0.1 to below 0.9), C (0.9 or more)

MOLECULE	ASSIGNED CATEGORY
CN(C)CCCCNC(=O)[C@H]1C[C@H]2C(=O)N3CCC[C@H]3C(=O)N2[C@H]1c1ccc(O)cc1	C
NC(N)=NCc1cn(CCc2c[nH]c3ccccc23)nn1	B

*Q* Which band does O=C1NC(=O)C2C1C=CC(C(O)c1ccc3c(c1)OCO3)N2Nc1ccccn1 (configuration not stated) fall in?
*A* A

*Q* Pick a category. Item: COc1ccc(C(O)C2C=CC3C(=O)N(C)C(=O)C3N2N2CCCCC2)cc1 (configuration not stated)
*A* A

*Q* Which category does the recorded z-score put `[N-]=[N+]=Nc1ccccc1[C@@H]1OC(c2ccc(OCCCO)cc2)=N[C@]1(CCS(=O)(=O)c1ccccc1)C(=O)NCCN1CCOCC1` in?
*A* C

*Q* Assign a category based on measured z-score for O=C1NC(=O)C2C1C=CC(C(O)c1c(F)cccc1Cl)N2Nc1ccccn1 (configuration not stated) and give only the class name.
*A* A

*Q* Which category does the recorded z-score put `COc1cc2c(cc1OC)CN(C(=O)[C@H]1[C@@H]3C(=O)O[C@@H](c4ccccc4)[C@@H](c4ccccc4)N3[C@@H](c3ccc(OCCO)cc3)[C@]13C(=O)Nc1ccc(C#CCCO)cc13)CC2` in?
*A* B

*Q* Lab note: sort `COC(=O)[C@@]1(Cc2ccc(OC)cc2)[C@H]2c3cc(C(=O)N4CCCC4)n(CCc4cc5ccccc5[nH]4)c3C[C@H]2CN1C(=O)c1ccccc1` into the matching z-score band.
*A* C

*Q* Which category fits this record: `COCCOC(=O)N1C(=O)[C@@]2(c3cc(C#CC4(O)CCCCCC4)ccc31)[C@H](C(=O)N1CCCCCCC1)[C@H]1C(=O)O[C@H](c3ccccc3)[C@H](c3ccccc3)N1[C@@H]2c1ccc(OCCO)cc1`
*A* B

*Q* Form: Item = `C=CCN1C(=O)[C@@]2(CCC(=O)OC(C)(C)C)N=C(c3ccc(OCCCO)cc3)O[C@H]2c2ccccc21` ; Class = ?
*A* C

*Q* Just checking, what class would you give `COCCCNC(=O)[C@@]1(Sc2ccc(C)cc2)CC(=O)N(C2Cc3ccccc3C2)[C@@H]1c1ccc(CO)cc1I` here?
*A* A

*Q* Dear colleague, I would appreciate it if you could identify the bin for `COc1ccc([Si](C)(C)[C@@H]2[C@@H](CCn3cc([C@H](O)c4ccccc4)nn3)O[C@]3(C(=O)N(Cc4ccc(N5CCOC5=O)cc4)c4ccccc43)[C@H]2C)cc1` and reply at your convenience.
*A* C

*Q* Entry COc1ccc(C(O)C2C=CC3C(=O)N(c4ccccc4)C(=O)C3N2Nc2ccccc2)cc1OCc1ccccc1 (configuration not stated) belongs to which category?
*A* B

*Q* Category of `NCCCCCNC(=O)[C@@H]1C[C@@H]2C(=O)N[C@@H](CCCCN)C(=O)N2[C@@H]1c1cccc(OCCO)c1` :
*A* C

*Q* Which band does `C=CCOC(=O)[C@H]1[C@@H]2C(=O)O[C@@H](c3ccccc3)[C@@H](c3ccccc3)N2[C@@H](c2ccc(OCCOC(=O)[C@H]3C[C@H]4C(=O)N[C@@H](Cc5ccccc5)C(=O)N4[C@H]3c3ccc(O)cc3)cc2)[C@]12C(=O)Nc1ccc(I)cc12` fall in?
*A* B

*Q* Class for `COCCCNC(=O)[C@]1(Cc2ccccc2CN=[N+]=[N-])N=C(c2ccc(OCCCO)cc2)O[C@@H]1c1ccccc1` ?
*A* C

*Q* The entry to classify is `[N-]=[N+]=Nc1ccccc1C[C@@]1(C(=O)O)N=C(c2ccc(OCCCO)cc2)O[C@@H]1c1ccccc1` ; which class holds it?
*A* A

*Q* Place this molecule in its band: C[C@]12C(=O)N(CCCCCCO)[C@@H]3C(=O)N(c4ccc(Cl)cc4)CC=CC31O[C@@H]1/C=C\CCCOC(=O)C12 (some centres not stated)
*A* A

*Q* Which class does `CN(C)CCCNC(=O)[C@@H]1c2ccccc2C(=O)N(CC23CC4CC(CC(C4)C2)C3)[C@H]1c1ccc(CO)cc1` fall in?
*A* B

*Q* Each molecule maps to one class by z-score. Which class for C[C@@H](OCc1ccccc1)C1NC(=O)[C@@]23C(=O)N[C@@H](Cc4ccccc4)C2[C@H](C)[C@@]2(C)O[C@H]2C3/C=C/C/C=C\CNC(=O)CNC1=O (some centres not stated) ?
*A* B

*Q* For this molecule, which bin applies? `COc1ccccc1CN1C(=O)c2ccccc2[C@](Cc2ccccc2I)(C(=O)NC(C)C)[C@@H]1c1ccc(CO)cc1`
*A* B

*Q* Which category does the recorded z-score put `C[C@]1(C(=O)NCCN2CCOCC2)c2ccccc2C(=O)N(Cc2ccc(OC(F)(F)F)cc2)[C@H]1c1ccc(CO)cc1` in?
*A* C

*Q* Looking at `COc1ccc([Si](C)(C)[C@@H]2[C@@H](CCO)O[C@]3(C(=O)N(Cc4cccc(N5C(=O)c6ccccc6Oc6ccccc65)c4)c4ccccc43)[C@H]2C)cc1` , which class would you pick?
*A* B

*Q* State the band of `COCCOC(=O)N1C(=O)[C@@]2(c3cc(C#CCNC(N)=O)ccc31)[C@H](C(=O)N1CCCCCCC1)[C@H]1C(=O)O[C@H](c3ccccc3)[C@H](c3ccccc3)N1[C@@H]2c1ccc(O)cc1`
*A* A

*Q* Please indicate the class for `COC(=O)C(CC#Cc1ccc2c(c1)[C@]1(C(=O)N2)[C@H](C(=O)O)[C@H]2C(=O)O[C@H](c3ccccc3)[C@H](c3ccccc3)N2[C@@H]1c1ccccc1OCCO)C(=O)OC` based on its z-score.
*A* A

*Q* Given `CCOC(=O)C[C@H]1[C@H](OC(=O)c2ccccc2-c2ccccc2)[C@@H](NC(=O)c2ccc3ccccc3n2)c2cc(OCCCO)ccc2N1C(=O)c1ccc2ccccc2n1` , name the class its z-score places it in.
*A* A

###

Assay: compound binding in COS7 lysate, probe aLAP1, primary screen, cell lysate, small-molecule microarray (AID 1124);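 further: lysate comes from COS7 cells expressing LAP1 and is applied at 0.3 µg/mL; score merges spot fluorescence near 667 nm with signal-to-noise over triplicate slides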
Details: probe aLAP1, fluorescence, higher = more signal
ENDPOINT: composite z-score
# respond with the number and nothing more

See these solved cases before continuing.
MOLECULE	ENDPOINT	ENDPOINT RESULT
COc1ccc([Si](C)(C)[C@@H]2[C@@H](CC(=O)N3CCC[C@H]3CO)O[C@]3(C(=O)N(Cc4ccc(N5C(=O)c6cccc7cccc5c67)cc4)c4ccccc43)[C@H]2C)cc1	composite z-score	0.323
O=C1O[C@@H](c2ccccc2)[C@@H](c2ccccc2)N2[C@@H](c3ccc(O)cc3)[C@]3(C(=O)Nc4ccc(C#CCCO)cc43)[C@@H](C(=O)NC[C@H](O)c3ccccc3)[C@H]12	composite z-score	0.102
CC(C)C(=C=CC[C@H](O)c1ccc(OCCO)cc1)C[C@H](O)c1cc(Cl)cc(Cl)c1O	composite z-score	0.147
CC1CC/C=C\[C@H]2OC34C=CCN(CCN5CCOCC5)C(=O)[C@H]3N(CCO)C(=O)[C@@H]4C2C(=O)O1 (stereo partly specified)	composite z-score	0.973
CCCCN1CC=CC23O[C@@H]4/C=C\CCC(C)OC(=O)C4[C@H]2C(=O)N(CCCCCCO)[C@@H]3C1=O (stereo partly specified)	composite z-score	0.54

*Q* Quick check: composite z-score of CC(C)(C)N1CC=CC23O[C@@H]4C=CCOC(=O)[C@@H]4[C@H]2C(=O)N(CCCO)[C@@H]3C1=O (stereo partly specified) ?
*A* -0.343

*Q* Would you kindly share the measured composite z-score for CCCCN1CC=CC23O[C@@H]4C=CCOC(=O)[C@@H]4[C@H]2C(=O)N(CCCO)[C@@H]3C1=O (stereo partly specified) ?
*A* 0.95

*Q* Give the measured composite z-score of COC(=O)C1(Cc2ccccc2)C=C2C(=C(c3ccccc3)C(=O)C2C)CN1 (stereo unspecified) .
*A* 0.906

*Q* Fill in the blank: the reported composite z-score of `COc1ccc(NC(=O)O[C@H]2[C@H](OC(=O)Nc3ccc4c(c3)OCO4)[C@@H](OC(=O)Nc3ccc4c(c3)OCO4)[C@@H](OC)O[C@@H]2CO)cc1` is ____.
*A* 0.714
